// reported log10 Ki for each item listed
- target: Rhesus PDE2A3 (Macaca mulatta)
- Sequence (B3VTJ2 1-941): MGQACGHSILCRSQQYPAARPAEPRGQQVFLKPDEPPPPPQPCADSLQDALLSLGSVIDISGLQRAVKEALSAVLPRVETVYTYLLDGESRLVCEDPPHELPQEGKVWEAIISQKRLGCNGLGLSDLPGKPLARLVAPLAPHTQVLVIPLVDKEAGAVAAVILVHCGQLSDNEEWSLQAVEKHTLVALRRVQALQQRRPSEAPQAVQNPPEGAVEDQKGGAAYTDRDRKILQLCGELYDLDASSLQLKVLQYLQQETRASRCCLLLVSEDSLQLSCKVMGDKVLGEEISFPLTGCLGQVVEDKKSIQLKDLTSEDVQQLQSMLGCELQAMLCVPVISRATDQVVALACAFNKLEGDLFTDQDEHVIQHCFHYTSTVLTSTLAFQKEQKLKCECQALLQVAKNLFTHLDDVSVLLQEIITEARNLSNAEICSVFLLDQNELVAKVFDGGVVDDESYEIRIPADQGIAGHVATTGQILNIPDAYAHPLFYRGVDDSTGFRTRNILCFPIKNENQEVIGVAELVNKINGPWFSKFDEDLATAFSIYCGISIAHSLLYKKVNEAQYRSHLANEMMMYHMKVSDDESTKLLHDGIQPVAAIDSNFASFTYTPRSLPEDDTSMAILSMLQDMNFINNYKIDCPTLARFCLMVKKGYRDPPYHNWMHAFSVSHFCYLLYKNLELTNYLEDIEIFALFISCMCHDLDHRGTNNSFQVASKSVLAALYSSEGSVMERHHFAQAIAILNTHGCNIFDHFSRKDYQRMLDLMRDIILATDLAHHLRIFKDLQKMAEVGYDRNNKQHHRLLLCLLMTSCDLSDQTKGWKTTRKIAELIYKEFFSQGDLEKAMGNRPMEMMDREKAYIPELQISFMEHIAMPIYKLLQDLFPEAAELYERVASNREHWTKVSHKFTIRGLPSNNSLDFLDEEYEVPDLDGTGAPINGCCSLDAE
- protocol: PDE2 fluorescence polarization (IMAP FP) inhibition assay, rhesus enzyme
- Format: biochemical, rhesus macaque
- conditions: Rhesus PDE2, Lab B; read-out: Rhesus PDE2 Ki (nM) - Lab B
Remember, log10 of Ki, in nM.

CC(NC(=O)c1cc(=O)[nH]c(-c2ccccc2)n1)c1cccc(-c2ccccc2)c1 (centres unmarked)    3.29
CC[C@@H](NC(=O)c1cc(=O)[nH]c(COC)n1)c1ccc(SC(F)(F)F)cc1    1.46
CC[C@@H](NC(=O)c1cc(=O)[nH]c(Cc2ccc(OC)cc2)n1)c1ccc(S(F)(F)(F)(F)F)cc1    0.52
CC1(C(NC(=O)c2cc(=O)[nH]c(C3CC3)n2)c2ccc(SC(F)(F)F)c(F)c2)CC1 (single isomer, unassigned) [Example 704]    0.67
CC(C)(NC(=O)c1cc(=O)[nH]c(-c2ccccc2)n1)c1ccc(SC(F)(F)F)c(F)c1    2.00
COc1ccc(C(C)(C)c2nc(C(=O)N[C@@H](c3ccc(C(F)(F)F)c(F)c3)C(C)C)cc(=O)[nH]2)cc1    1.78
Cc1nc(C(=O)N[C@H](C)c2ccc(OC(F)(F)F)c(F)c2)cc(=O)[nH]1    1.15
COc1ccc(C(C)(C)c2nc(C(=O)N[C@@H](c3ccc(C(F)(F)F)cc3)C3CC3)cc(=O)[nH]2)cc1    2.06

Find log10 Ki for Cc1nc(C(=O)N[C@@H](c2ccc(C3CC3)cc2)C(C)(C)C)cc(=O)[nH]1 on Rhesus PDE2A3 (Macaca mulatta) and write it down.
0.28

----------
- target: Rhesus PDE2A3 (Macaca mulatta)
- protocol: PDE2 fluorescence polarization (IMAP FP) inhibition assay, rhesus enzyme
- Format: biochemical, rhesus macaque
- conditions: Rhesus PDE2, Lab B; read-out: Rhesus PDE2 Ki (nM) - Lab B
Parameter Ki: see the listing below.
Supply the numeric figure in nM, leaving out any unit text.

CC[C@@H](NC(=O)c1cc(=O)[nH]c(-c2ccccc2)n1)c1ccc(SC(F)(F)F)c(F)c1 [Example 385]    7
COc1ccc(Cc2nc(C(=O)N[C@@H](c3ccc(C(F)(F)F)cc3)C(C)(C)C)cc(=O)[nH]2)cc1F [Example 457]    0.68
C[C@@H](NC(=O)c1cc(=O)[nH]c(-c2ccccc2)n1)c1ccc(SC(F)(F)F)c(F)c1 [Example 398]    2.9

# ---- query molecule ----
Please list Ki recorded for the molecule O=C(NC1(c2ccc(C(F)(F)F)c(F)c2)CC1)c1cc(=O)[nH]c(-c2ncccn2)n1 [Example 76]
18

----------
- target: UniProt:B3VTJ2
- protocol: PDE2 fluorescence polarization (IMAP FP) inhibition assay, rhesus enzyme
- Type: biochemical, rhesus macaque
- conditions: Rhesus PDE2, Lab A; read-out: Rhesus PDE2 Ki (nM) - Lab A
- Experimental: The activity of the compounds in accordance with the present invention as PDE2 inhibitors may be readily determined using a fluorescence polarization (FP) methodology (Huang, W., et al., J. Biomol Screen, 2002, 7: 215). In a typical experiment the PDE2 inhibitory activity of the compounds of the present invention was determined in accordance with the following experimental method. […] 0% of inhibition is determined by using DMSO (1% final concentrations). […]
measurement kind: Ki (nM)
Form entry: value (nM) — number only.

The cases that follow already have their Ki on record.
COc1ccc(Cc2nc(C(=O)NC3(c4ccc(C(F)(F)F)cc4)CC3)cc(=O)[nH]2)cc1OC [Example 3]    0.54
COCc1nc(C(=O)N[C@H](C)c2ccc(OC(F)(F)F)c(F)c2)cc(=O)[nH]1 [Example 126]    48
Cc1nc(C(=O)N[C@@H](c2ccc(SC(F)(F)F)c(F)c2)C2CC2)cc(=O)[nH]1 [Example 55]    11
CC(C)(NC(=O)c1cc(=O)[nH]c(C2CC2)n1)c1ccc(OC(F)(F)F)cc1 [Example 295]    127
CCc1ccc(C(C)NC(=O)c2cc(=O)[nH]c(C)n2)cc1 (stereo not shown) [Example 268]    146

Please look at this compound and report its Ki: CC(C)[C@@H](NC(=O)c1cc(=O)[nH]c(C2CC2)n1)c1ccc(C(F)(F)F)cc1 [Example 193]
3.9

Please give measured Ki of the following entry: Cc1nc(C(=O)N[C@@H](c2ccc(C(F)(F)F)cc2)C(C)(C)C)cc(=O)[nH]1 [Example 249]
2

Tell us which Ki value is on record for O=C(NC1(c2ccc(SC(F)(F)F)cc2)CCC1)c1cc(=O)[nH]c(C2CC2)n1 [Example 204]
37

Please list Ki recorded for the compound CCc1nc(C(=O)N[C@H](C)c2ccc(C(F)(F)F)cc2)c(CC)c(=O)[nH]1 [Example 333]
89

Name the recorded Ki of the compound listed here: CC(C)[C@@H](NC(=O)c1cc(=O)[nH]c(C2CC2)n1)c1ccc(OC(F)(F)F)cc1 [Example 191]
3.4

Read off the recorded Ki for COc1ccc([C@@H](C)NC(=O)c2cc(=O)[nH]c(-c3ncccn3)n2)cc1 [Example 86]
237

Return value of Ki for input Cc1nc(C(=O)NC2(c3ccc(C(F)(F)F)cc3)CCCC2)cc(=O)[nH]1 [Example 270] , no commentary.
225

Give reported Ki value for CC(C)[C@@H](NC(=O)c1cc(=O)[nH]c(-c2ncccn2)n1)c1ccc(S(F)(F)(F)(F)F)cc1 [Example 265]
1.2

Please give measured Ki of the following entry: O=C(NC1(c2ccc(C(F)(F)F)c(F)c2)CC1)c1cc(=O)[nH]c(-c2ccccc2)n1 [Example 145]
2.9

Provide Ki value for the following compound: Cc1nc(C(=O)NC2(c3ccc(C(F)(F)F)cc3)CCC2)cc(=O)[nH]1 [Example 2]
38

Give Ki for the following compound: CCc1ccc(C(C)NC(=O)c2cc(=O)[nH]c(-c3ccccc3)n2)cc1 (stereo not shown) [Example 165]
16

// provenance: patent US9815796B2
